Biological target: Oxytocin receptor (Rattus norvegicus)
Sequence (P70536 whole entry): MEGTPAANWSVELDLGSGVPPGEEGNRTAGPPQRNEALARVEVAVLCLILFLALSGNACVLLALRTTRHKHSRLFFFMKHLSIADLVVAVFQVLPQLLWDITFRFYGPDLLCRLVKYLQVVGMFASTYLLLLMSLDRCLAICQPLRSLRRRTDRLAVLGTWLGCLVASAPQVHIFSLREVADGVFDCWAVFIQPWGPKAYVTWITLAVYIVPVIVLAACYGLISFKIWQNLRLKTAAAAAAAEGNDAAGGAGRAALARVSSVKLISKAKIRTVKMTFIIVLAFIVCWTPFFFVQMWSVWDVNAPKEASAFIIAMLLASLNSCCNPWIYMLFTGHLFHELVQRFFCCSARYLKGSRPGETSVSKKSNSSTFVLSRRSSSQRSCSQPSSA
Assay: Antagonist activity at oxytocin receptor in rat uterus by Schild's method in absence of Mg2+
Type: tissue-based
Settings: read-out: pA2 (converted)
Starred links: 1 amine or outer side, 2 acyl side, 3 side chain; linkers in the order of their positions; H or OH if unused. Positions of bridges follow the written chain, without caps; N, C: chain ends. Residues, ends and D or L forms follow the SMILES beside them. X2 = O=C(CC1(S[*:2])CCCCC1)[*:1]; X1 = CC(C)(CC(=O)[*:1])S[*:2]
property: Kb (nM)

Answered cases to consult:
CC[C@H](C)[C@@H]1NC(=O)[C@H](Cc2ccc(O)cc2)NC(=O)CC(C)(C)SSC[C@@H](C(=O)N2CCC[C@H]2C(=O)N[C@@H](CC(C)C)C(=O)NCC(N)=O)NC(=O)[C@H](CC(N)=O)NC(=O)[C@H]([C@@H](C)O)NC1=O (stereo in doubt; 1a)
34.7
CC[C@H](C)[C@@H]1NC(=O)[C@H](Cc2ccc(O)cc2)NC(=O)CC2(CCCCC2)SSC[C@@H](C(=O)N2CCC[C@H]2C(=O)N[C@@H](CC(C)C)C(=O)NCC(N)=O)NC(=O)[C@H](CC(N)=O)NC(=O)[C@H](CCC(N)=O)NC1=O (YIQNCPLG-NH2; linker N-5 via X2)
37.2

(I) CC[C@H](C)[C@@H]1NC(=O)[C@H](Cc2ccc(O)cc2)NC(=O)CC(C)(C)SSC[C@@H](C(=O)N2CCC[C@H]2C(=O)N[C@@H](CC(C)C)C(=O)NCC(N)=O)NC(=O)[C@H](CC(N)=O)NC(=O)[C@H]([C@@H](C)O)NC1=O (stereo in doubt; 1b)
(II) CC[C@H](C)[C@@H]1NC(=O)[C@H](Cc2ccc(O)cc2)NC(=O)CC(C)(C)SSC[C@@H](C(=O)N2CCC[C@H]2C(=O)N[C@@H](CC(C)C)C(=O)NCC(N)=O)NC(=O)[C@H](CC(N)=O)NC(=O)[C@H](CCC(N)=O)NC1=O (YIQNCPLG-NH2; linker N-5 via X1)
# compare Kb for I vs II ; return the one with the smaller value Return value: the label identifying the chosen record.
I
